Please respond with reported GLC for every item in the list.
Organism: Rattus norvegicus
Assay: Open TG-GATES - Regimen: Single
Type: toxicity, organism-based, Sprague-Dawley
Design: regimen Single, gender Male, age 6 weeks
Settings: in vivo, po, 0 mg/kg, 3 h, tissue Plasma, route gavage, dose level Control
Answers are plain numbers, in mg/dL.

Count: 6. Required value per item: GLC.
1. O=C1CN(/N=C/c2ccc(-c3ccc([N+](=O)[O-])cc3)o2)C(O)=N1 [DANTROLENE]
2. COc1ccc(O)c(C(C)(C)C)c1.COc1ccc(O)cc1C(C)(C)C [BUTYLATED HYDROXYANISOLE]
3. Cc1cccc(Nc2cc(Cl)nc(SCC(=O)O)n2)c1C [PIRINIXIC ACID]
4. C=CCO [ALLYL ALCOHOL]
5. Cn1cnc([N+](=O)[O-])c1Sc1ncnc2nc[nH]c12 [AZATHIOPRINE]
6. O=C1NC(=O)C(c2ccccc2)(c2ccccc2)N1 [PHENYTOIN]

a:
194.2
171.8
183.6
192.4
175.4
177.4

Count: 4. Required value per item: GLC.
1. S=C=Nc1cccc2ccccc12 [1-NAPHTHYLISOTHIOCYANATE]
2. CNCCC(Oc1ccc(C(F)(F)F)cc1)c1ccccc1.Cl (stereo not given) [FLUOXETINE HYDROCHLORIDE]
3. CS(=O)(=O)Nc1ccc([N+](=O)[O-])cc1Oc1ccccc1 [NIMESULIDE]
4. COc1ccc(Cl)cc1C(=O)NCCc1ccc(S(=O)(=O)NC(=O)NC2CCCCC2)cc1 [GLYBURIDE]

a:
1. 200.8
2. 198
3. 197.2
4. 191.6

Attribution: ChEMBL document CHEMBL3885861
